# target: C-C chemokine receptor type 3 (Homo sapiens)
# experiment: Inhibitory concentration of compound against C-C chemokine receptor type 3 was determined using human [125I]eotaxin
# experimentalContext: concentration not given here
Please note: MET applies when inhibition is 40% or greater, and NOT MET applies otherwise.

{"compound": "COc1cccc(NC(=O)NCCCN2CCOC(Cc3ccccc3)C2)c1 (stereo not drawn)", "assignedLabel": "NOT MET"}
{"compound": "COc1cccc(CC2CCCN(CCCNC(=O)Nc3cccc(C#N)c3)C2)c1 (stereo not drawn)", "assignedLabel": "NOT MET"}
{"compound": "N#Cc1cccc(NC(=O)NCCCN2CCOC(Cc3ccccc3)C2)c1 (stereo not drawn)", "assignedLabel": "NOT MET"}
{"compound": "CC(=O)c1cccc(NC(=O)NCCCN2CCN(C(C)=O)C(Cc3ccc(F)cc3)C2)c1 (stereo not drawn)", "assignedLabel": "NOT MET"}
{"compound": "CC(=O)c1cccc(NC(=O)NCCCN2C[C@@H]3C[C@@H](c4ccc(F)cc4)[C@@H]3C2)c1", "assignedLabel": "MET"}
{"compound": "COc1cccc(NC(=O)NCCCN2CCCC(CCc3ccccc3)C2)c1 (stereo not drawn)", "assignedLabel": "MET"}
{"compound": "N#Cc1cccc(NC(=O)NCCCN2CCCC(Cc3ccc(C(F)(F)F)cc3)C2)c1 (stereo not drawn)", "assignedLabel": "NOT MET"}
{"compound": "N#Cc1cccc(NC(=O)NCCCN2CCCC(CCc3ccccc3)C2)c1 (stereo not drawn)", "assignedLabel": "MET"}
